experiment: Plasma protein binding (equilibrium dialysis, [^14C]CR6086); assay type: in vitro ADME; conditions: rat, 0.2–200 μM, read-out: unbound fraction (fu)
assayMetric: fraction unbound
Answers are plain numbers.

Value of measured fraction unbound for the entry O=C([O-])c1ccc(C2(NC(=O)[C@H]3CC4(CCN3Cc3ccc(C(F)(F)F)cc3)CC4)CC2)cc1.[Na+] [CR6086] : 0.0484
